Data provenance: patent US20060111357A1

molecular target: human MCH-1 receptor (Homo sapiens, UniProt Q99705); construct: expressed in transfected cells; host or cells: transiently transfected COS-7 cells or stably transfected CHO cells (pcDNA3.1); experiment: Phosphatidylinositol (IP3) assay, MCH-stimulated turnover; type: cell-based
Sequence (Q99705 whole entry): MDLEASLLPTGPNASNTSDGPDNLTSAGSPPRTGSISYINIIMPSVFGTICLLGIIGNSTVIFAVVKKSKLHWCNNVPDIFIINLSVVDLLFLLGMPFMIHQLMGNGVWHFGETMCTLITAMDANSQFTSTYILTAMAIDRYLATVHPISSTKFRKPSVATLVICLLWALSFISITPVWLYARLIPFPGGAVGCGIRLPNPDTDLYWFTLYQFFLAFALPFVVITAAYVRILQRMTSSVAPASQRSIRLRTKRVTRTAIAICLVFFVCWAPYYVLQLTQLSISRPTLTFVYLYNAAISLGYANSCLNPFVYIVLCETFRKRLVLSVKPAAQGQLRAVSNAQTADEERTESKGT
pIC50: −log10 of the molar value.
PROPERTY_MEASURED: pIC50

1) Cc1cc(OCCN(C)C)nc2ccc(NC(=O)COc3ccc(Cl)cc3Cl)cc12 [Example 76]; 6.87

###

Listing of entries alongside the reported IC50.
biological target: human MCH-1 receptor (Homo sapiens); construct: expressed in transfected cells; host or cells: transiently transfected COS-7 cells or stably transfected CHO cells (pcDNA3.1); test: Phosphatidylinositol (IP3) assay, MCH-stimulated turnover; type: cell-based; conditions: stimulated by 10 nM MCH; read-out: IP3 IC50
PROPERTY_MEASURED: IC50 (nM)

1) Cc1nc(N(C)CCCN(C)C)nc2ccc(NC(=O)COc3ccc(Cl)cc3Cl)cc12; 63
2) Cc1cc(NCCN2CCOCC2)nc2ccc(NC(=O)COc3ccc(OC(F)(F)F)cc3)cc12; 16
3) Cc1cc(N2CCN(CCO)CC2)nc2ccc(NC(=O)COc3ccc(OC(F)(F)F)cc3)cc12; 23

###

Known pIC50 of a selection of molecules
biological target: human MCH-1 receptor (Homo sapiens, UniProt Q99705); construct: expressed in transfected cells; host or cells: transiently transfected COS-7 cells or stably transfected CHO cells (pcDNA3.1); assay: Phosphatidylinositol (IP3) assay, MCH-stimulated turnover; assay type: cell-based; settings: stimulated by 10 nM MCH; read-out: IP3 IC50
pIC50: −log10 of the molar value.
PROPERTY_MEASURED: pIC50

1. Cc1cc(N2CCN(C)CC2)nc2ccc(NC(=O)/C=C/c3ccc(OC(F)(F)F)cc3)cc12; 7.38
2. Cc1cc(N2CCCNCC2)nc2ccc(NC(=O)COc3ccc(OC(F)(F)F)cc3)cc12; 7.15
3. Cc1cc(NCC(C)(C)CN(C)C)nc2ccc(NC(=O)COc3ccc(OC(F)(F)F)cc3)cc12; 6.72
4. Cc1cc(N2CCC(N)CC2)nc2ccc(NC(=O)COc3ccc(Cl)cc3Cl)cc12; 7.20
5. CCN1CCCC1CNc1cc(C)c2cc(NC(=O)/C=C/c3ccc(OC(F)(F)F)cc3)ccc2n1 (centres unmarked); 8.00
6. Cc1cc(N(C)CCN(C)C)nc2ccc(NC(=O)CCc3ccc(OC(F)(F)F)cc3)cc12; 6.14
7. Cc1cc(N(C)CCN(C)C)nc2ccc(NC(=O)c3ccc(-c4ccc(C(F)(F)F)cc4)cc3)cc12; 6.32
8. Cc1cc(N2CCN(C)CC2)nc2ccc(NC(=O)C(C)Oc3ccc(Cl)cc3Cl)cc12 (centres unmarked); 5.70

###

In this section, each of the compounds is paired with its reported log10(IC50).
biological target: human MCH-1 receptor (Homo sapiens); construct: expressed in transfected cells; host or cells: transiently transfected COS-7 cells or stably transfected CHO cells (pcDNA3.1); assay: MCH receptor binding ([125I]-MCH competition binding / SPA)
PROPERTY_MEASURED: log10(IC50) (log10 of the value in nM)

1. Cc1cc(N(C)CCN(C)C)nc2ccc(NC(=O)CCc3ccc(OC(F)(F)F)cc3)cc12; 1.57
2. Cc1cc(N2CCCNCC2)nc2ccc(NC(=O)COc3ccc(OC(F)(F)F)cc3)cc12; 1.08
3. CCN1CCCC1CNc1cc(C)c2cc(NC(=O)/C=C/c3ccc(OC(F)(F)F)cc3)ccc2n1 (stereo not drawn); 1.11
4. Cc1cc(N(C)CCN(C)C)nc2ccc(NC(=O)c3ccc(-c4ccc(C(F)(F)F)cc4)cc3)cc12; 1.80
5. Cc1cc(N2CCN(CCO)CC2)nc2ccc(NC(=O)COc3ccc(OC(F)(F)F)cc3)cc12; 1.70
6. Cc1cc(N2CCN(C)CC2)nc2ccc(NC(=O)/C=C/c3ccc(OC(F)(F)F)cc3)cc12; 1.04
7. Cc1cc(NCC(C)(C)CN(C)C)nc2ccc(NC(=O)COc3ccc(OC(F)(F)F)cc3)cc12; 1.32
8. Cc1nc(N(C)CCCN(C)C)nc2ccc(NC(=O)COc3ccc(Cl)cc3Cl)cc12; 1.00
9. Cc1cc(NCCN2CCOCC2)nc2ccc(NC(=O)COc3ccc(OC(F)(F)F)cc3)cc12; 1.00
10. Cc1cc(N2CCC(N)CC2)nc2ccc(NC(=O)COc3ccc(Cl)cc3Cl)cc12; 1.61
11. Cc1cc(NCCN(C(C)C)C(C)C)nc2ccc(NC(=O)COc3ccc(OC(F)(F)F)cc3)cc12; 1.34
12. Cc1cc(N2CCN(C)CC2)nc2ccc(NC(=O)C(C)Oc3ccc(Cl)cc3Cl)cc12 (stereo not drawn); 2.45
